Entries and their growth values follow.
- Tested on: HS 578T breast
- assay overview: NCI-60 one-dose screen, 48 h (100 = growth as untreated, 0 = no growth, -100 = all killed)
- test settings: 10 µM unless noted
The panel holds about 83,000 compounds, 20% with a hit somewhere; the sample as a whole holds those more often.
The figure you give is taken to be in %; do not add the unit.

O=C(C(=O)N1CCCC1)c1cn(CCCCCn2cc(C(=O)C(=O)N3CCCC3)c3ccccc32)c2ccccc12: 94.4
[Cl][Hg][n]1cnc2c(Cl)c(Cl)c(Cl)cc21: 79.5
NS(=O)(=O)c1nc[nH]c1[N+](=O)[O-]: 112
C/C(=C\c1cc(C(F)(F)F)n(-c2ccc(N)cc2)n1)[C@@H]1C[C@@H]2O[C@]2(C)CCC[C@H](C)[C@H](O)[C@@H](C)C(=O)C(C)(C)[C@@H](O)CC(=O)O1: -11.5
NC(Cc1ccc2c(c1)OCO2)c1ccc2c(c1)OCO2 (configuration not stated): 103
O=C1NC2(CCNCC2)Nc2ccccc21: 102
COc1cc(/C=C\c2cc(OC)c(OC)c(OC)c2)cc(N/C=C\C(=O)c2ccc(OC(F)(F)F)cc2)c1OC: 29.4
O=C(/C=C/c1ccccc1)N[C@@H](CO)Cc1cnc[nH]1: 116
S=P(NC1CCCCC1)(N1CC1)N1CC1: 114
CCOCC1(CCc2ccccc2)C(=O)NC(=S)NC1=O: 106

Quick check: growth on HS 578T breast, item Oc1ccc(O)c2c1C1(Cl)C(Cl)=C(Cl)C2(Cl)C1(Cl)Cl ?
55.6

Lookup: growth / HS 578T breast / c1cnc2c(c1)ccc1ncccc12
159

Identify the measured growth of CCCCOC(=O)c1ccccc1C(=O)O.CCCCOC(=O)c1ccccc1C(=O)O.[Cu+2] for HS 578T breast.
97.3

Request - read-out growth | tested on HS 578T breast | compound COc1cc[c]([Hg][Cl])cc1
30.5

Provide the documented growth with HS 578T breast as the system for c1ccc([As]=[As]c2ccccc2)cc1 (configuration not stated)
37.8
